// data source = patent US9365615B2

biological target: chymotrypsin (Bos taurus, UniProt P00766); construct: purchased SIGMA; experiment: Resistance to peptidase: decomposition by chymotrypsin (HPLC); type: in vitro ADME; settings: isolated chymotrypsin (SIGMA), pH 8; 4 U/ml enzyme in 0.1M Tris-HCl (pH8.0), 37° C., peptide 0.2 mg/ml; time at which half of the peptide was decomposed; read-out: half period by chymotrypsin (t1/2)
Listing: half-life at 0.2 mg/ml of selected molecules
# value in min; strip the unit string

MOLECULE	TARGET OR SYSTEM	UNIT ANNOTATION	half-life at 0.2 mg/ml
CC(=O)N[C@@H](Cc1ccc(O)cc1)C(=O)N[C@H]1CCCCNCCCCN(CC(=O)N[C@@H](Cc2ccc(O)cc2)C(=O)O)C(=O)[C@H](CC(C)C)NC(=O)[C@H](Cc2ccc(O)cc2)NC(=O)[C@H](CCC(N)=O)NC(=O)[C@H](CO)NC(=O)[C@H](Cc2c[nH]c3ccccc23)NC1=O [Bdev6]	chymotrypsin (Bos taurus, UniProt P00766)	min	2.09
COCCOCCOCCOCCOCCOCCOCCOCCC(=O)N1CCCC[C@H](NC(=O)[C@@H](N)Cc2ccc(O)cc2)C(=O)N[C@@H](Cc2c[nH]c3ccccc23)C(=O)N[C@@H](CO)C(=O)N[C@@H](CCC(N)=O)C(=O)N[C@@H](Cc2ccc(O)cc2)C(=O)N[C@@H](CC(C)C)C(=O)N(CC(=O)N[C@@H](Cc2ccc(O)cc2)C(=O)O)CCCC1 [Bdev-30]	chymotrypsin (Bos taurus, UniProt P00766)	min	3.66
CC(=O)N1CCCC[C@@H](C(=O)N[C@@H](Cc2ccc(O)cc2)C(=O)O)NC(=O)[C@H](CC(C)C)NC(=O)[C@H](Cc2ccc(O)cc2)NC(=O)[C@H](CCC(N)=O)NC(=O)[C@H](CO)NC(=O)[C@H](Cc2c[nH]c3ccccc23)NC(=O)[C@@H](NC(=O)[C@@H](N)Cc2ccc(O)cc2)CCCC1 [Bdev-25]	chymotrypsin (Bos taurus, UniProt P00766)	min	1.85

Query string: What does the data say about its half-life at 0.2 mg/ml? Entry: CCC(=O)N1CCCC[C@H](NC(=O)[C@@H](N)Cc2ccc(O)cc2)C(=O)N[C@@H](Cc2c[nH]c3ccccc23)C(=O)N[C@@H](CO)C(=O)N[C@@H](CCC(N)=O)C(=O)N[C@@H](Cc2ccc(O)cc2)C(=O)N[C@@H](CC(C)C)C(=O)N(CC(=O)N[C@@H](Cc2ccc(O)cc2)C(=O)O)CCCC1 [Bdev-27]
Result string: 4.37

###

target: chymotrypsin (Bos taurus); construct: purchased SIGMA; assay: Resistance to peptidase: decomposition by chymotrypsin (HPLC); format: in vitro ADME; conditions: isolated chymotrypsin (SIGMA), pH 8; 4 U/ml enzyme in 0.1M Tris-HCl (pH8.0), 37° C., peptide 0.2 mg/ml; time at which half of the peptide was decomposed; read-out: half period by chymotrypsin (t1/2)
*1 amine or outer side, *2 acyl side, *3 side chain or, on linkers, in order; H or OH if unused. Where a SMILES comes first, the peptide text is derived from it. Bridges are numbered along the chain shown (N, C = ends). X1 = O=C(C[*:2])[*:1]
Listing: half-life at 0.2 mg/ml of selected compounds
Number in s, nothing else.

The following compounds have reported results that may help.
COMPOUND	TARGET OR SYSTEM	UNIT ANNOTATION	half-life at 0.2 mg/ml
CC(C)C[C@@H]1NC(=O)[C@H](Cc2ccc(O)cc2)NC(=O)[C@H](CCC(N)=O)NC(=O)[C@H](CO)NC(=O)[C@H](Cc2c[nH]c3ccccc23)NC(=O)[C@@H](NC(=O)[C@@H](N)Cc2ccc(O)cc2)CCCCNC(=O)CSC[C@@H](C(=O)N[C@@H](Cc2ccc(O)cc2)C(=O)O)NC1=O [Comp. 1, reference compound] (H-YKWSQYLCY-OH; linker 2-8 via X1)	chymotrypsin (Bos taurus)	s	27
COCCOCCOCCOCCC(=O)N1CCCC[C@H](NC(=O)[C@@H](N)Cc2ccc(O)cc2)C(=O)N[C@@H](Cc2c[nH]c3ccccc23)C(=O)N[C@@H](CO)C(=O)N[C@@H](CCC(N)=O)C(=O)N[C@@H](Cc2ccc(O)cc2)C(=O)N[C@@H](CC(C)C)C(=O)N(CC(=O)N[C@@H](Cc2ccc(O)cc2)C(=O)O)CCCC1 [Bdev-29]	chymotrypsin (Bos taurus)	s	224

Consider the additional compound presented here.
Query string: Identify the measured half-life at 0.2 mg/ml of CC(=O)N[C@@H](Cc1ccc(O)cc1)C(=O)N[C@H]1CCCCN(C(C)=O)CCCCN(CC(=O)N[C@@H](Cc2ccc(O)cc2)C(=O)O)C(=O)[C@H](CC(C)C)NC(=O)[C@H](Cc2ccc(O)cc2)NC(=O)[C@H](CCC(N)=O)NC(=O)[C@H](CO)NC(=O)[C@H](Cc2c[nH]c3ccccc23)NC1=O [Bdev5] for chymotrypsin (Bos taurus).
Result string: 23.4

###

molecular target: chymotrypsin (Bos taurus); construct: purchased SIGMA; experiment: Resistance to peptidase: decomposition by chymotrypsin (HPLC); assay type: in vitro ADME; details: isolated chymotrypsin (SIGMA), pH 8; 4 U/ml enzyme in 0.1M Tris-HCl (pH8.0), 37° C., peptide 0.2 mg/ml; time at which half of the peptide was decomposed; read-out: half period by chymotrypsin (t1/2)
// reported half-life at 0.2 mg/ml for each item listed
Numeric only. Scale: min

MOLECULE	UNIT ANNOTATION	NUMERIC RESULT
CC(=O)N1CCCC[C@H](NC(=O)[C@@H](N)Cc2ccc(O)cc2)C(=O)N[C@@H](Cc2c[nH]c3ccccc23)C(=O)N[C@@H](CO)C(=O)N[C@@H](CCC(N)=O)C(=O)N[C@@H](Cc2ccc(O)cc2)C(=O)N[C@@H](CC(C)C)C(=O)N(CC(=O)N[C@@H](Cc2ccc(O)cc2)C(=O)O)CCCC1	min	1.4

Query string: Look up half-life at 0.2 mg/ml: `CCCCC(=O)N1CCCC[C@H](NC(=O)[C@@H](N)Cc2ccc(O)cc2)C(=O)N[C@@H](Cc2c[nH]c3ccccc23)C(=O)N[C@@H](CO)C(=O)N[C@@H](CCC(N)=O)C(=O)N[C@@H](Cc2ccc(O)cc2)C(=O)N[C@@H](CC(C)C)C(=O)N(CC(=O)N[C@@H](Cc2ccc(O)cc2)C(=O)O)CCCC1`
Result string: 2.9

Query string: Would you kindly share the measured half-life at 0.2 mg/ml for `CC(=O)N1CCCCN(CC(=O)N[C@@H](Cc2ccc(O)cc2)C(=O)O)C(=O)[C@H](CC(C)C)NC(=O)[C@H](Cc2ccc(O)cc2)NC(=O)[C@H](CCC(N)=O)NC(=O)[C@H](CO)NC(=O)[C@H](Cc2c[nH]c3ccccc23)NC(=O)CN(C(=O)[C@@H](N)Cc2ccc(O)cc2)CCCC1` ?
Result string: 0.95

###

test system: carboxy peptidase; assay: Resistance to peptidase: decomposition by carboxy peptidase (HPLC); format: in vitro ADME; conditions: isolated carboxy peptidase (SIGMA); 1 U/ml enzyme in PBS, 37° C., peptide 0.2 mg/ml; time at which half of the peptide was decomposed; read-out: half period by carboxy peptidase (t1/2)
Measured half-life at 0.2 mg/ml accompanies every entry in the list below.
Please respond with the number in min and leave the unit unwritten.

MOLECULE	TARGET OR SYSTEM	NUMERIC RESULT
CC(=O)N[C@@H](Cc1ccc(O)cc1)C(=O)N[C@H]1CCCCN(C(C)=O)CCCCN(CC(=O)N[C@@H](Cc2ccc(O)cc2)C(=O)O)C(=O)[C@H](CC(C)C)NC(=O)[C@H](Cc2ccc(O)cc2)NC(=O)[C@H](CCC(N)=O)NC(=O)[C@H](CO)NC(=O)[C@H](Cc2c[nH]c3ccccc23)NC1=O	carboxy peptidase	3.34
CC(=O)N1CCCC[C@H](NC(=O)[C@@H](N)Cc2ccc(O)cc2)C(=O)N[C@@H](Cc2c[nH]c3ccccc23)C(=O)N[C@@H](CO)C(=O)N[C@@H](CCC(N)=O)C(=O)N[C@@H](Cc2ccc(O)cc2)C(=O)N[C@@H](CC(C)C)C(=O)N(CC(=O)N[C@@H](Cc2ccc(O)cc2)C(=O)O)CCCC1	carboxy peptidase	18.7

Query molecule follows.
Query string: Request the reported half-life at 0.2 mg/ml associated with `COCCOCCOCCOCCOCCOCCOCCOCCC(=O)N1CCCC[C@H](NC(=O)[C@@H](N)Cc2ccc(O)cc2)C(=O)N[C@@H](Cc2c[nH]c3ccccc23)C(=O)N[C@@H](CO)C(=O)N[C@@H](CCC(N)=O)C(=O)N[C@@H](Cc2ccc(O)cc2)C(=O)N[C@@H](CC(C)C)C(=O)N(CC(=O)N[C@@H](Cc2ccc(O)cc2)C(=O)O)CCCC1`
Result string: 19.2
